Data provenance is paper PMC11123692.

method_notes: Water solubility limit by visual examination (transparent/turbid)
Assay type: physicochemical
recorded_conditions: water, thermodynamic from solid, water, at T > Tk; read-out: Solubility Limit (S/mM)
Procedure: Water solubility reflects the ability of a particular molecule to dissolve and its interaction with water. […] Two general approaches were used to measure the Tks of the molecules investigated herein: (1) a visual examination of the dissolution phenomenon for binary molecule/water systems, and (2) a quantitative measurement by using differential scanning calorimetry (DSC) analysis. […] The aspect of the sample, either transparent or turbid, is determined by direct visual examination. […]
This listing pairs compounds with measured solubility.

In: Complete the entry with solubility for CCCCCCCCCCCC(=O)OC[C@H]1O[C@H](OC)[C@H](O)[C@@H](O)[C@@H]1O
Out: ≤ 0.1 mM

In: # return recorded solubility for entry CCCCCCCCCC(=O)OC[C@H]1O[C@H](OC)[C@H](O)[C@@H](O)[C@@H]1O [MeαGlcO(C=O)C9, Methyl 6-O-decanoyl-α-D-glucopyranoside]
Out: ≤ 1 mM

***
In: Look up and report measured solubility for this entry: CCCCCCCCO[C@H]1O[C@H](CO)[C@@H](O)[C@H](O)[C@H]1O [Molecule C8αGlc, Octyl α-D-glucopyranoside, reference compound]
Out: > 100 mM

In: Find the measured solubility of CCCCCCCC(=O)OC[C@H]1O[C@H](OC)[C@H](O)[C@@H](O)[C@@H]1O [MeαGlcO(C=O)C7, Methyl 6-O-octanoyl-α-D-glucopyranoside] and report it.
Out: < 10 mM

In: Check the records and state solubility for CCCCCCCCOC(=O)[C@H]1O[C@@H](OC)[C@H](O)[C@@H](O)[C@H]1O [MeβGal(C=O)OC8, methyl octyl galacturonate]
Out: > 100 mM

In: Could you please provide reported solubility for CCCCCCCCO[C@@H]1O[C@H](CO)[C@H](O)[C@H](O)[C@H]1O [Molecule C8βGal, octyl β-D-galactopyranoside, reference compound] ? Thanks!
Out: > 100 mM

----------
method_notes: Equilibrium surface tension, Wilhelmy plate method (CMC, γcmc, Amin and derived quantities)
Format: physicochemical
recorded_conditions: T = 25 °C (T > Tk)
property_measured: γcmc (mN/m)

In: Give me measured γcmc, please, for this compound: CCCCCCCCO[C@H]1O[C@H](CO)[C@H](O)[C@H](O)[C@H]1O [Molecule C8αGal, Octyl α-D-galactopyranoside, reference compound]
Out: 29.5

In: Dear colleague, please send me the reported γcmc for CCCCCCCCCCCCOC(=O)[C@H]1O[C@H](OC)[C@H](O)[C@@H](O)[C@@H]1O [MeαGlc(C=O)OC12] when you can.
Out: 28.3

In: State its γcmc for this compound: CCCCCCCCO[C@@H]1O[C@H](CO)[C@@H](O)[C@H](O)[C@H]1O [Molecule C8βGlc, octyl β-D-glucopyranoside, reference compound]
Out: 31.0

In: Specify measured γcmc for CCCCCCOC(=O)[C@H]1O[C@H](OC)[C@H](O)[C@@H](O)[C@@H]1O [MeαGlc(C=O)OC6] .
Out: 30.8

In: Note down γcmc recorded for CCCCCC(=O)OC[C@H]1O[C@H](OC)[C@H](O)[C@@H](O)[C@@H]1O [MeαGlcO(C=O)C5, Methyl 6-O-hexanoyl-α-D-glucopyranoside]
Out: 31

In: Tell me γcmc reported for CCCCCCCCOC(=O)[C@H]1O[C@H](OC)[C@H](O)[C@@H](O)[C@@H]1O [MeαGlc(C=O)OC8, methyl octyl α-D-glucuronate]
Out: 29.2

In: Supply γcmc value. Item: CCCCCCCCCCOC(=O)[C@H]1O[C@H](OC)[C@H](O)[C@@H](O)[C@@H]1O [MeαGlc(C=O)OC10]
Out: 28.1

In: Let me know recorded γcmc for CCCCCCCC(=O)OC[C@H]1O[C@@H](OC)[C@H](O)[C@@H](O)[C@H]1O [MeβGalO(C=O)C7] , thanks.
Out: 28.3

In: Identify the reported γcmc for the following entry. CCCCCCCC(=O)OC[C@H]1O[C@H](OC)[C@H](O)[C@@H](O)[C@@H]1O [MeαGlcO(C=O)C7, Methyl 6-O-octanoyl-α-D-glucopyranoside]
Out: 29.5

----------
method_notes: Equilibrium surface tension, Wilhelmy plate method (CMC, γcmc, Amin and derived quantities)
Type: physicochemical
recorded_conditions: T = 25 °C
property_measured: C20 (mM)

Would you please look over these solved cases?
In: Note C20 for the molecule shown: CCCCCCCC(=O)OC[C@H]1O[C@H](OC)[C@H](O)[C@@H](O)[C@@H]1O [MeαGlcO(C=O)C7, Methyl 6-O-octanoyl-α-D-glucopyranoside]
Out: 1.0

In: Return C20 for the following molecule: CCCCCCCC(=O)OC[C@H]1O[C@@H](OC)[C@H](O)[C@@H](O)[C@H]1O
Out: 0.7

P = CCCCCCCCOC(=O)[C@H]1O[C@H](OC)[C@H](O)[C@@H](O)[C@@H]1O [MeαGlc(C=O)OC8, methyl octyl α-D-glucuronate]
Q = CCCCCC(=O)OC[C@H]1O[C@H](OC)[C@H](O)[C@@H](O)[C@@H]1O [MeαGlcO(C=O)C5, Methyl 6-O-hexanoyl-α-D-glucopyranoside]
R = CCCCCCCCCCOC(=O)[C@H]1O[C@H](OC)[C@H](O)[C@@H](O)[C@@H]1O
S = CCCCCCCCO[C@@H]1O[C@H](CO)[C@@H](O)[C@H](O)[C@H]1O [Molecule C8βGlc, octyl β-D-glucopyranoside, reference compound]
In: I would appreciate it if you could sort these 4 molecules by C20, starting from the smallest number. Answer by listing the labels in the order asked for.
Out: R, P, S, Q
(R: 0.05 mM, P: 0.5 mM, S: 2.7 mM, Q: 11.2 mM)

----------
method_notes: Equilibrium surface tension, Wilhelmy plate method (CMC, γcmc, Amin and derived quantities)
Assay type: physicochemical
recorded_conditions: T = 25 °C
property_measured: pC20

Example results:
In: Hello, please tell me recorded pC20 for this one: CCCCCCCC(=O)OC[C@H]1O[C@H](OC)[C@H](O)[C@@H](O)[C@@H]1O [MeαGlcO(C=O)C7, Methyl 6-O-octanoyl-α-D-glucopyranoside]
Out: 3.0

In: Fill in reported pC20 for this entry: CCCCCCCCO[C@H]1O[C@H](CO)[C@H](O)[C@H](O)[C@H]1O [Molecule C8αGal, Octyl α-D-galactopyranoside, reference compound]
Out: 2.4

In: Report measured pC20; entry is CCCCCC(=O)OC[C@H]1O[C@H](OC)[C@H](O)[C@@H](O)[C@@H]1O [MeαGlcO(C=O)C5, Methyl 6-O-hexanoyl-α-D-glucopyranoside]
Out: 2.0

In: Return value of pC20 for input CCCCCCCCO[C@@H]1O[C@H](CO)[C@@H](O)[C@H](O)[C@H]1O [Molecule C8βGlc, octyl β-D-glucopyranoside, reference compound] , no commentary.
Out: 2.6

In: Answer with the recorded pC20 of CCCCCCCCOC(=O)[C@H]1O[C@H](OC)[C@H](O)[C@@H](O)[C@@H]1O [MeαGlc(C=O)OC8, methyl octyl α-D-glucuronate] only.
Out: 3.3

I = CCCCCCCCCCOC(=O)[C@H]1O[C@H](OC)[C@H](O)[C@@H](O)[C@@H]1O
II = CCCCCCOC(=O)[C@H]1O[C@H](OC)[C@H](O)[C@@H](O)[C@@H]1O
In: For the pair I and II , which entry has the numerically smaller recorded pC20? Select an item and report its label.
Out: II
(II: 2.2, I: 4.3)

I = CCCCCCCCCCCCOC(=O)[C@H]1O[C@H](OC)[C@H](O)[C@@H](O)[C@@H]1O
II = CCCCCCCC(=O)OC[C@H]1O[C@@H](OC)[C@H](O)[C@@H](O)[C@H]1O
In: Between I and II , whose recorded pC20 is greater? Write down the label attached to your selection.
Out: I
(I: 5.4, II: 3.1)

----------
Listing of recorded solubility by entry.
method_notes: Water solubility limit by visual examination (transparent/turbid)
Format: physicochemical
recorded_conditions: water, thermodynamic from solid, water, at RT; read-out: Solubility Limit (S/mM)

In: Return value of solubility for input CCCCCCCCCCCCOC(=O)[C@H]1O[C@H](OC)[C@H](O)[C@@H](O)[C@@H]1O [MeαGlc(C=O)OC12] , no commentary.
Out: 0.02 to 0.05 mM

***
In: # return recorded solubility for entry CCCCCCOC(=O)[C@H]1O[C@H](OC)[C@H](O)[C@@H](O)[C@@H]1O [MeαGlc(C=O)OC6]
Out: ≤ 50 mM

In: Please look at this compound and report its solubility: CCCCCCCCCCOC(=O)[C@H]1O[C@H](OC)[C@H](O)[C@@H](O)[C@@H]1O [MeαGlc(C=O)OC10]
Out: 0.5 to 0.75 mM

In: Indicate the recorded solubility value for this compound: CCCCCCCCO[C@H]1O[C@H](CO)[C@H](O)[C@H](O)[C@H]1O [Molecule C8αGal, Octyl α-D-galactopyranoside, reference compound]
Out: > 100 mM

In: # return recorded solubility for input CCCCCCCCO[C@@H]1O[C@H](CO)[C@@H](O)[C@H](O)[C@H]1O [Molecule C8βGlc, octyl β-D-glucopyranoside, reference compound]
Out: > 100 mM

In: // Input: CCCCCCCC(=O)OC[C@H]1O[C@@H](OC)[C@H](O)[C@@H](O)[C@H]1O [MeβGalO(C=O)C7] . Output its solubility only.
Out: > 100 mM
